This collection of values is drawn from patent US8257931B2.

target: eIF4E (Mus musculus); assay: FP assay competing with fluorogenic eIF4G-derived peptide (KRYDREFLLGF); format: binding; conditions: relative to hit compound 1
Sequence (P63073 whole entry): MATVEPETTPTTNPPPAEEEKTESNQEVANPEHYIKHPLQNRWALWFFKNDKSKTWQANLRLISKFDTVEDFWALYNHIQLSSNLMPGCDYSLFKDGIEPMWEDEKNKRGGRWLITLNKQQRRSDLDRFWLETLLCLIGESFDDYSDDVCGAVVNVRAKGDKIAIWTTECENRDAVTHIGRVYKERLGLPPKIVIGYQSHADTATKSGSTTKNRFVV
readout_type: binding affinity / potency in FP assay compared with hit compound 1

Looking up O=C(O)C(Cc1ccccc1[N+](=O)[O-])=NNc1nc(-c2ccc(N=Nc3ccccc3)cc2)cs1 , I found its binding affinity / potency in FP assay compared with hit compound 1 recorded as ~3 fold

###

system: A549 lung cancer cells; test: A549 proliferation, sulforhodamine B (SRB) assay; assay type: cell-based, human; conditions: Homo sapiens, A549, Table 1 of b280; sulforhodamine B assay, triplicate
readout_type: GI50 (µM)

# count of solved cases: 4
[[record]]
compound = "Cc1sc(N/N=C(\\Cc2ccccc2)C(=O)O)nc1-c1ccccc1 [Z-9]"
value_units = "µM"
result_value = 4

[[record]]
compound = "O=C(O)/C(Cc1ccccc1[N+](=O)[O-])=N/Nc1nc(-c2ccc3ccccc3c2)cs1"
value_units = "µM"
result_value = 6

[[record]]
compound = "O=C(O)C(Cc1ccccc1[N+](=O)[O-])=NNc1nc(-c2ccc(/N=N/c3ccccc3)cc2)cs1 (mixture of isomers)"
value_units = "µM"
result_value = 4

[[record]]
compound = "O=C(O)/C(Cc1ccccc1)=N/Nc1nc(-c2ccccc2)cs1 [Z-4]"
value_units = "µM"
result_value = 17


1. O=C(O)/C(Cc1ccccc1)=N/Nc1nc(-c2ccccc2)c(-c2ccccc2)s1 [Z-10]
2. O=C(O)/C(=N/Nc1nc(-c2ccccc2)cs1)c1ccccc1 [Z-6]
Incoming: Which one would you say has the larger GI50 value: 1 , or 2 ? Write down the label of the entry you select.
Outgoing: 2
(2: 13 µM, 1: 1 µM)
